- System: UACC-62
- measurement.description: NCI tumour cell line growth inhibition, 48 h
Activity calls are given as the source filed them. No stated cut-off is given here; in the data, active = GI50 up to about 1.1 µM and inactive = higher.
result.type: GI50

COc1cc2c(cc1OC)-c1c(oc3cc(OC4OC(CO)C(O)C(O)C4O)c(OC)cc3c1=O)C(O)O2 (centres undefined)
> 100 µM (inactive)
CC1C(=O)CCC1C(Sc1ccccc1)(Sc1ccccc1)Sc1ccccc1 (centres undefined)
18 µM (inactive)
O=C(ON=C1c2ccccc2C(Br)C(Br)c2ccccc21)c1ccccc1 (centres undefined)
16.7 µM (inactive)
CC(=O)/C=C/c1ccc(C2CC(C)=Nc3c(ccc4c3C(=O)c3ccccc3C4=O)N2)cc1 (centres undefined)
59.7 µM (inactive)
CCC/C(Cl)=N\OC(=O)Nc1ccc(Br)cc1
18.9 µM (inactive)
Nc1nc2ccc(Sc3ccc4nc(N)[nH]c(=O)c4c3)cc2c(=O)[nH]1
> 100 µM (inactive)
O=c1/c(=C/c2ccccn2)sc2nc3cc4c(cc3n12)OCCO4
> 100 µM (inactive)
O=C(O)CCC(=O)c1ccc[nH]1
> 100 µM (inactive)
O=C(NC1CCC[C@H]1OC(=O)c1ccccc1)c1ccccc1 (some centres undefined)
50.9 µM (inactive)

====

Attribute: GI50
- Test system: SR
- measurement.description: NCI tumour cell line growth inhibition, 48 h
Activity calls are given as the source filed them. No stated cut-off is given here; in the data, active = GI50 up to about 1.1 µM and inactive = higher.
result.type: GI50

N=C(N)NCCN1CC2CCC(CC2)C1
> 100 µM (inactive)
CN(CCNC(=S)c1cn(C)c2c1ccc1ccccc12)CCNC(=S)c1cn(C)c2c1ccc1ccccc12
49.5 µM (inactive)
CC(=O)Nc1ccc(OCC(O)CO)cc1 (configuration not stated)
> 100 µM (inactive)
N#Cc1ccc(NC(=O)C(CC(=O)OCc2ccccc2)NC(=O)OCc2ccccc2)cc1 (configuration not stated)
> 10 µM (inactive)
Fc1cc(-c2cc(-c3ccccc3)n[nH]2)c(Cl)cc1Cl
> 100 µM (inactive)
Cc1ccccc1OC(C)C(=O)NN1C(=O)CSC1c1ccccc1 (configuration not stated)
10.2 µM (inactive)
C[C@@H](NC(=O)OC1C=CC2(CC1)C(=O)N(C)c1ccccc12)c1cccc2ccccc12 (some centres not stated)
10.2 µM (inactive)
COc1ccc(-c2c(=O)[nH]n3c(=S)[nH]c(-c4ccccc4)nc23)cc1OC
6.9 µM (inactive)
O=C1C(Br)=CC2(C=C1Br)CCNC1=C2C(=O)c2[nH]cnc2C1=O
30.1 µM (inactive)
COC(=O)NC(=O)c1cn(CCCOC(=O)CCCCCCCCC(=O)OCCCn2cc(C(=O)NC(=O)OC)c(=O)[nH]c2=O)c(=O)[nH]c1=O
> 100 µM (inactive)
CC1(C)OC2C(CO)OC(n3cnc(N)nc3=O)C2O1 (configuration not stated)
> 100 µM (inactive)
COc1ccc2c(C(=O)O)cc3ccccc3c2c1OC
30.5 µM (inactive)
O=c1[nH]c(=S)c2cc3c(=S)[nH]c(=O)n(CCO)c3nc2n1CCO
> 100 µM (inactive)
COc1cc(Br)c(CC2C3=C(CCN2C(=O)C2CCC2)CC(=O)CC3)cc1O (configuration not stated)
38.4 µM (inactive)
O=c1[nH]c2c(c3ccccc13)CCc1ccccc1-2
> 100 µM (inactive)
CCC(C)CCOC(=O)c1ccc(/N=C\c2ccc(/C=N/c3ccc(C(=O)OCCC(C)CC)cc3)cc2)cc1 (configuration not stated)
> 100 µM (inactive)
O=C(ON=C1c2ccccc2C(Br)C(Br)c2ccccc21)c1ccccc1 (configuration not stated)
3.09 µM (inactive)
